Compiled literature IC50, tested on Receptor-type tyrosine-protein kinase FLT3 (Homo sapiens).

Solved entries (count: 5):
>>> print(df.to_string())
                                   compound  assay_metric  observed_measurement
0  O=C(Nc1ccc(Oc2ncnc3[nH]ncc23)cc1)Nc1ccc(C(F)(F)F)cc1          IC50                 27 nM
1    COc1ccc2sc3c(NCCO)nc4ccccc4c3c(=O)c2c1          IC50             > 1000 nM
2  CCc1c2c(nn1C)C(=O)N(C)CCOc1c(cnn1C)-c1ccc3[nH]nc(c3c1)/C=C/2          IC50              0.247 nM
3  CC(C)(C)c1cc(NC(=O)Nc2ccc(C#Cc3cnn4ccc(OCCCN5CCOCC5)nc34)cc2)no1          IC50                 94 nM
4  N#Cc1ccc(-c2ccc(-c3n[nH]c4c3Cc3sccc3-4)cc2)cc1          IC50              < 100 nM

Asked: Value lookup for IC50; key = CN1CCN(Cc2ccc(-c3cc(C4CCC(O)CC4)n4nc(NC5CCC5(C)C)ncc34)cc2)CC1 (mixture of isomers)
Given back: 100 to 1000 nM

---

pIC50: −log10 of the molar value.
Compiled literature pIC50, tested on Receptor-type tyrosine-protein kinase FLT3 (Homo sapiens, UniProt P36888).

Solved entries (count: 7):
                                 mol_smiles  assay_metric  observed_measurement
0  CC(C)(C)c1cc(NC(=O)Nc2ccc(C#Cc3ccc(OCCCN4C[C@@H]5OCCO[C@@H]5C4)cc3)cc2)no1         pIC50                  6.77
1  CCc1nc2c(N)ncc(-c3cnn(C4CCN(S(C)(=O)=O)CC4)c3)c2nc1N[C@@H]1CC[C@H](O)C1         pIC50                ≥ 8.00
2  CC[C@H](C)Nc1ncc2c(-c3ccc(CN4CCN(C)CC4)cc3)cc([C@H]3CC[C@H](O)CC3)n2n1         pIC50                ≥ 7.00
3  CCOC(=O)CCc1c(C)[nH]c(/C=C2\C(=O)Nc3cc(NC(=O)NC(=O)c4ccc(OC)cc4F)ccc32)c1C         pIC50                  5.42
4  CCc1nc2c(N)ncc(-c3cnn(C4CCN(C(C)C)CC4)c3)c2nc1NC1CCOCC1         pIC50                ≥ 8.00
5  O[C@H]1CC[C@H](c2cnc(OC3CCNCC3)c3cnc(N[C@H]4CCCOC4)nc32)CC1         pIC50          5.00 to 6.00
6  COC[C@H](C)Nc1ncc2c(-c3cnccc3C)cc([C@H]3CC[C@H](O)CC3)n2n1         pIC50          5.00 to 6.00

# input for lookup
Asked: Value lookup for pIC50; key = Nc1ccc(-c2cc(-c3nc4ccccc4[nH]3)n[nH]2)cc1
Given back: 5.30 to 6.30

---

Compiled literature IC50, tested on Receptor-type tyrosine-protein kinase FLT3 (Homo sapiens).

In [3]: df
Out[3]:
                                 mol_smiles  observed_measurement
0  CN1CCN(c2ccc3nc(-c4cc(-c5ccc(NC(=O)Nc6cccc(C#N)c6)cc5)[nH]n4)[nH]c3c2)CC1               < 50 nM
1  CCc1nc2c(N)ncc(-c3cnn(-c4cccc(C)n4)c3)c2nc1N[C@@H]1CC[C@H](O)C1               ≤ 10 nM
2  Cc1ccc(-c2c[nH]cc(C(=O)Nc3ccc4c(c3)NC(=O)/C4=C\c3ccc[nH]3)c2=O)cc1               74.7 nM

Asked: // map Cn1cc(C(=O)Nc2ccc3c(c2)NC(=O)/C3=C\c2ccc[nH]2)c(=O)c(-c2ccc(F)cc2)c1 to recorded IC50 (system: Receptor-type tyrosine-protein kinase FLT3 (Homo sapiens))
Given back: > 1000 nM

Asked: // map C[C@@H](COC(F)F)Nc1ncc2c(-c3ccnc(N4CCO[C@@H](C(C)(C)O)C4)c3)cc([C@H]3CC[C@H](O)CC3)n2n1 to recorded IC50 (system: Receptor-type tyrosine-protein kinase FLT3 (Homo sapiens))
Given back: 100 to 1000 nM

Asked: // map Cc1cc(Nc2ncc3ccc4ncc(C(C)C)n4c3n2)ncc1N1CCOCC1 to recorded IC50 (system: Receptor-type tyrosine-protein kinase FLT3 (Homo sapiens))
Given back: < 5 nM
